test system: Human immunodeficiency virus 1; assay: Antiviral activity against HIV1 infected in human MT4 cells; type: functional, organism-based; conditions: Human immunodeficiency virus 1, MT4
pEC50: −log10 of the molar value.
# Lookup of reported pEC50 keyed by entry
quantity: pEC50

> print(dat)
                                smiles.text             experimental.target  value.relation.sign  quantitative.readout
1  COC(=O)N[C@H](C(=O)NN(CCC[C@@]1(Cc2ccccc2)C(=O)N([C@H]2c3ccccc3C[C@H]2O)C[C@H]1O)Cc1ccc(Br)cc1)C(C)(C)C  Human immunodeficiency virus 1                    =                  5.41
2  COC(=O)N[C@H](C(=O)NN(CC[C@@]1(Cc2ccccc2)C(=O)N([C@H]2c3ccccc3C[C@H]2O)C[C@@H]1O)Cc1ccc(-c2cccnc2)cc1)C(C)(C)C  Human immunodeficiency virus 1                    =                  7.00
3  COC(=O)N[C@H](C(=O)NN(CC[C@]1(Cc2ccccc2)C(=O)N([C@H]2c3ccccc3C[C@H]2O)C[C@H]1O)Cc1ccc(Br)cc1)C(C)(C)C  Human immunodeficiency virus 1                    <                  5.00
4  COC(=O)N[C@H](C(=O)NN(CCC[C@@]1(Cc2ccccc2)C(=O)N([C@H]2c3ccccc3C[C@H]2O)C[C@H]1O)Cc1ccc(-c2ccncc2)cc1)C(C)(C)C  Human immunodeficiency virus 1                    =                  6.15
5  COC(=O)N[C@H](C(=O)NN(CC[C@@]1(Cc2ccccc2)C(=O)N([C@H]2c3ccccc3C[C@H]2O)C[C@H]1O)Cc1ccc(-c2ccccn2)cc1)C(C)(C)C  Human immunodeficiency virus 1                    =                  6.72
6  COC(=O)N[C@H](C(=O)NN(CC[C@@]1(Cc2ccccc2)C(=O)N([C@H]2c3ccccc3C[C@H]2O)C[C@@H]1O)Cc1ccc(Br)cc1)C(C)(C)C  Human immunodeficiency virus 1                    =                  6.46

---

# Lookup of reported EC50 keyed by entry
system: Human immunodeficiency virus 1; assay: Antiviral activity against HIV1 infected in human MT4 cells; assay type: functional, organism-based; conditions: Human immunodeficiency virus 1, MT4
quantity: EC50 (µM)

compound	experimental target	result unit	value relation sign	quantitative readout
COC(=O)N[C@H](C(=O)NN(CCC[C@@]1(Cc2ccccc2)C(=O)N([C@H]2c3ccccc3C[C@H]2O)C[C@H]1O)Cc1ccc(-c2cccnc2)cc1)C(C)(C)C	Human immunodeficiency virus 1	µM	=	1.8
COC(=O)N[C@H](C(=O)NN(CCC[C@@]1(Cc2ccccc2)C(=O)N([C@H]2c3ccccc3C[C@H]2O)C[C@H]1O)Cc1ccc(-c2ccccn2)cc1)C(C)(C)C	Human immunodeficiency virus 1	µM	=	2.5
COC(=O)N[C@H](C(=O)NN(CC[C@@]1(Cc2ccccc2)C(=O)N([C@H]2c3ccccc3C[C@H]2O)C[C@@H]1O)Cc1ccc(-c2ccncc2)cc1)C(C)(C)C	Human immunodeficiency virus 1	µM	=	0.096
COC(=O)N[C@H](C(=O)N[C@@H](Cc1ccccc1)[C@@H](O)CN(Cc1ccc(-c2ccccn2)cc1)NC(=O)[C@@H](NC(=O)OC)C(C)(C)C)C(C)(C)C [ATAZANAVIR]	Human immunodeficiency virus 1	µM	=	0.0039
COC(=O)N[C@H](C(=O)NN(CCC[C@@]1(Cc2ccccc2)C(=O)N([C@H]2c3ccccc3C[C@H]2O)C[C@H]1O)Cc1ccc(-c2ccccc2)cc1)C(C)(C)C	Human immunodeficiency virus 1	µM	=	0.85
COC(=O)N[C@H](C(=O)NN(CC[C@@]1(Cc2ccccc2)C(=O)N([C@H]2c3ccccc3C[C@H]2O[Si](C)(C)C(C)(C)C)C[C@H]1O[Si](C)(C)C(C)(C)C)Cc1ccc(Br)cc1)C(C)(C)C	Human immunodeficiency virus 1	µM	>	10

---

system: MT4; test: Cytotoxicity against human MT4 cells after 5 days by XTT assay; assay type: cell-based; settings: mt4, 120 h
# Lookup of reported CC50 keyed by entry
quantity: CC50 (µM)

> print(dat)
                                smiles.text  experimental.target  value.relation.sign  quantitative.readout
1  COC(=O)N[C@H](C(=O)NN(CC[C@@]1(Cc2ccccc2)C(=O)N([C@H]2c3ccccc3C[C@H]2O)C[C@H]1O)Cc1ccc(Br)cc1)C(C)(C)C                  MT4                    >                    50
2  COC(=O)N[C@H](C(=O)NN(CC[C@@]1(Cc2ccccc2)C(=O)N([C@H]2c3ccccc3C[C@H]2O)C[C@H]1O)Cc1ccc(-c2cccnc2)cc1)C(C)(C)C                  MT4                    >                    50
3  COC(=O)N[C@H](C(=O)NN(CC[C@]1(Cc2ccccc2)C(=O)N([C@H]2c3ccccc3C[C@H]2O)C[C@H]1O)Cc1ccc(Br)cc1)C(C)(C)C                  MT4                    =                    15
4  COC(=O)N[C@H](C(=O)NN(CC[C@@]1(Cc2ccccc2)C(=O)N([C@H]2c3ccccc3C[C@H]2O)C[C@H]1O)Cc1ccc(-c2ccccn2)cc1)C(C)(C)C                  MT4                    =                    28
5  COC(=O)N[C@H](C(=O)NN(CCC[C@@]1(Cc2ccccc2)C(=O)N([C@H]2c3ccccc3C[C@H]2O)C[C@H]1O)Cc1ccc(-c2ccccn2)cc1)C(C)(C)C                  MT4                    =                    31
6  COC(=O)N[C@H](C(=O)NN(CCC[C@@]1(Cc2ccccc2)C(=O)N([C@H]2c3ccccc3C[C@H]2O)C[C@H]1O)Cc1ccc(Br)cc1)C(C)(C)C                  MT4                    =                    26
7  COC(=O)N[C@H](C(=O)NN(CC[C@@]1(Cc2ccccc2)C(=O)N([C@H]2c3ccccc3C[C@H]2O)C[C@H]1O)Cc1ccc(-c2ccncc2)cc1)C(C)(C)C                  MT4                    >                    50
